- TEST METHOD NOTES: Stability in human liver microsome after 1 hr
- Format: ADME
- EXPERIMENTAL PARAMETERS: liver microsomes, read-out: Stability
Residues, ends and D or L forms follow the SMILES beside them.
Catalogue of remaining at 1 h values
METRIC NAME: remaining at 1 h

* CC(=O)N[C@@H](Cc1ccccc1)C(=O)N[C@@H](CCCN)C(=O)N1CCC[C@H]1C(=O)N[C@H](CCC(C)C)C(=O)N[C@@H](Cc1csc2ccccc12)C(=O)N[C@@H](Cc1ccccc1)C(N)=O | 1%
* CC(=O)N[C@@H](Cc1ccccc1)C(=O)N[C@@H](CCCN)C(=O)N1CCC[C@H]1C(=O)N[C@H](CCC(C)C)C(=O)N[C@@H](Cc1ccc(F)cc1)C(=O)N[C@@H](Cc1ccccc1)C(N)=O | 65%
* CC(=O)N[C@@H](Cc1ccccc1)C(=O)N[C@H]1CCCNC(=O)[C@H](CCCN=C(N)N)NC(=O)[C@H](Cc2c[nH]c3ccccc23)NC(=O)[C@@H](CC2CCCCC2)NC(=O)[C@@H]2CCCN2C1=O | 10%
* CC(C)CC[C@@H](NC(=O)[C@@H]1CCCN1C(=O)[C@H](CCCN)NC(=O)[C@H](Cc1ccccc1)NC(=O)[C@@H]1CC(=O)NC(=O)N1)C(=O)N[C@@H](Cc1ccc(F)cc1)C(=O)N[C@@H](Cc1ccccc1)C(N)=O | 80%
* CC(=O)N[C@@H](Cc1ccccc1)C(=O)N[C@@H](CCCN)C(=O)N1CCC[C@H]1C(=O)N[C@H](CCC(C)C)C(=O)N[C@@H](Cc1ccc(Cl)c(Cl)c1)C(=O)N[C@@H](Cc1ccccc1)C(N)=O | 49%
* CC(=O)N[C@@H](Cc1ccccc1)C(=O)N[C@@H](CCCN)C(=O)N1CCC[C@H]1C(=O)N[C@H](CCC(C)C)C(=O)N[C@@H](Cc1c[nH]c2ccccc12)C(=O)N[C@@H](Cc1ccccc1)C(N)=O | 37%
* CC(=O)N[C@@H](Cc1ccccc1)C(=O)N[C@@H](CCCN)C(=O)N1CCC[C@H]1C(=O)N[C@H](CC1CCCCC1)C(=O)N[C@@H](Cc1c[nH]c2ccccc12)C(=O)N[C@@H](Cc1ccccc1)C(N)=O (HELM PEPTIDE1{[ac].F.[Orn].P.[O=C([C@@H](CC1CCCCC1)N[*:1])[*:2]].W.F.[am]}$$$$V2.0) | 34%
* CC(=O)N[C@@H](Cc1ccccc1)C(=O)N[C@@H](CCCN)C(=O)N1CCC[C@H]1C(=O)N[C@H](CCC(C)C)C(=O)N[C@@H](Cc1cccc(Cl)c1)C(=O)N[C@@H](Cc1ccccc1)C(N)=O | 62%

----------
- TGT: UniProt:P21730
- TEST METHOD NOTES: Antagonist activity at human C5aR in CD88 transfected RBL cells assessed as inhibition of C5a-induced glucosaminidase release
- Assay type: functional, cell-based
pIC50: −log10 of the molar value. Residues, ends and D or L forms follow the SMILES beside them.
Classification field: T = pIC50 at or over 7; F = pIC50 under 7.

* CC(=O)N[C@@H](Cc1ccccc1)C(=O)N[C@H]1CCCNC(=O)[C@H](CCCNC(N)=O)NC(=O)[C@H](Cc2c[nH]c3ccccc23)NC(=O)[C@@H](CC2CCCCC2)NC(=O)[C@@H]2CCCN2C1=O | F
* CCCCCCCC[C@@H]1NC(=O)[C@H](Cc2c[nH]c3ccccc23)NC(=O)[C@@H](CC2CCCCC2)NC(=O)[C@@H]2CCCN2C(=O)[C@@H](NC(=O)[C@H](Cc2ccccc2)NC(C)=O)CCCNC1=O | F
* CC(=O)N[C@@H](Cc1ccccc1)C(=O)N[C@H]1CCCNC(=O)[C@H](C2CCCCC2)NC(=O)[C@H](Cc2c[nH]c3ccccc23)NC(=O)[C@@H](CC2CCCCC2)NC(=O)[C@@H]2CCCN2C1=O (HELM PEPTIDE1{[ac].F.[Orn].P.[O=C([C@@H](CC1CCCCC1)N[*:1])[*:2]].W.[O=C([C@@H](N[*:1])C1CCCCC1)[*:2]]}$PEPTIDE1,PEPTIDE1,3:R3-7:R2$$$V2.0) | T
* CC(=O)N[C@@H](Cc1ccccc1)C(=O)N[C@H]1CCCNC(=O)[C@H](CCC/N=C(/N)N[N+](=O)[O-])NC(=O)[C@H](Cc2c[nH]c3ccccc23)NC(=O)[C@@H](CC2CCCCC2)NC(=O)[C@@H]2CCCN2C1=O | F
* CC(=O)N[C@@H](Cc1ccccc1)C(=O)N[C@@H](CCCN)C(=O)N1CCC[C@H]1C(=O)N[C@H](CCC(C)C)C(=O)N[C@@H](Cc1csc2ccccc12)C(=O)N[C@@H](Cc1ccccc1)C(N)=O | T
* CC(=O)N[C@@H](Cc1ccccc1)C(=O)N[C@H]1CCCNC(=O)[C@H](CC(C)C)NC(=O)[C@H](Cc2c[nH]c3ccccc23)NC(=O)[C@@H](CC2CCCCC2)NC(=O)[C@@H]2CCCN2C1=O (HELM PEPTIDE1{[ac].F.[Orn].P.[O=C([C@@H](CC1CCCCC1)N[*:1])[*:2]].W.L}$PEPTIDE1,PEPTIDE1,3:R3-7:R2$$$V2.0) | T
* CC(=O)N[C@@H](Cc1ccccc1)C(=O)N[C@@H](CCCN)C(=O)N1CCC[C@H]1C(=O)N[C@H](CCC(C)C)C(=O)N[C@@H](Cc1cccc(Cl)c1)C(=O)N[C@@H](Cc1ccccc1)C(N)=O | T
* CC(=O)N[C@@H](Cc1ccccc1)C(=O)N[C@H]1CCCNC(=O)[C@H](Cc2cccc3ccccc23)NC(=O)[C@H](Cc2c[nH]c3ccccc23)NC(=O)[C@@H](CC2CCCCC2)NC(=O)[C@@H]2CCCN2C1=O (HELM PEPTIDE1{[ac].F.[Orn].P.[O=C([C@@H](CC1CCCCC1)N[*:1])[*:2]].W.[O=C([C@H](Cc1cccc2ccccc12)N[*:1])[*:2]]}$PEPTIDE1,PEPTIDE1,3:R3-7:R2$$$V2.0) | T

----------
- TGT: C5a anaphylatoxin chemotactic receptor 1 (Homo sapiens)
- Sequence (P21730 whole entry): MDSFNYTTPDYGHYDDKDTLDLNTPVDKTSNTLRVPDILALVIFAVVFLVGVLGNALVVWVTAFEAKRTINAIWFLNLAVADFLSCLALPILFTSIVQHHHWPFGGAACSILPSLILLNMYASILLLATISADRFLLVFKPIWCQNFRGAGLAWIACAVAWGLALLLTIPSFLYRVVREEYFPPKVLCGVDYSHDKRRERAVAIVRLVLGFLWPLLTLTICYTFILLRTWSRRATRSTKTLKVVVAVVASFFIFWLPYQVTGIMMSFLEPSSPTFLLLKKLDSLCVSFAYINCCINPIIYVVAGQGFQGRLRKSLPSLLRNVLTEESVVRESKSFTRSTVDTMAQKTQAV
- TEST METHOD NOTES: Antagonist activity at human C5aR in CD88 transfected RBL cells assessed as inhibition of C5a-induced glucosaminidase release
- Type: functional, cell-based
pIC50: −log10 of the molar value. Residues, ends and D or L forms follow the SMILES beside them.
Classification field: MET = pIC50 at or over 7; NOT MET = pIC50 under 7.

* CC(=O)N[C@@H](Cc1ccccc1)C(=O)N[C@H]1CCCNC(=O)[C@H](CC2CCCCC2)NC(=O)[C@H](Cc2c[nH]c3ccccc23)NC(=O)[C@@H](CC2CCCCC2)NC(=O)[C@@H]2CCCN2C1=O (HELM PEPTIDE1{[ac].F.[Orn].P.[O=C([C@@H](CC1CCCCC1)N[*:1])[*:2]].W.[Cha]}$PEPTIDE1,PEPTIDE1,3:R3-7:R2$$$V2.0) | MET
* CC(=O)N[C@@H](Cc1ccccc1)C(=O)N[C@H]1CCCNC(=O)[C@H](CCCN=C(N)N)NC(=O)[C@H](C)NC(=O)[C@@H](CC2CCCCC2)NC(=O)[C@@H]2CCCN2C1=O (HELM PEPTIDE1{[ac].F.[Orn].P.[O=C([C@@H](CC1CCCCC1)N[*:1])[*:2]].A.R}$PEPTIDE1,PEPTIDE1,3:R3-7:R2$$$V2.0) | NOT MET
* CC[C@H](C)[C@@H]1NC(=O)[C@H](Cc2c[nH]c3ccccc23)NC(=O)[C@@H](CC2CCCCC2)NC(=O)[C@@H]2CCCN2C(=O)[C@@H](NC(=O)[C@H](Cc2ccccc2)NC(C)=O)CCCNC1=O | MET
* CC(=O)N[C@@H](Cc1ccccc1)C(=O)N[C@H]1CCCNC(=O)[C@H](CCCCNC(=N)N)NC(=O)[C@H](Cc2c[nH]c3ccccc23)NC(=O)[C@@H](CC2CCCCC2)NC(=O)[C@@H]2CCCN2C1=O | NOT MET
* CCCC[C@@H]1NC(=O)[C@H](Cc2c[nH]c3ccccc23)NC(=O)[C@@H](CC2CCCCC2)NC(=O)[C@@H]2CCCN2C(=O)[C@@H](NC(=O)[C@H](Cc2ccccc2)NC(C)=O)CCCNC1=O (HELM PEPTIDE1{[ac].F.[Orn].P.[O=C([C@@H](CC1CCCCC1)N[*:1])[*:2]].W.[Nle]}$PEPTIDE1,PEPTIDE1,3:R3-7:R2$$$V2.0) | MET
* CC(=O)N[C@@H](Cc1ccccc1)C(=O)N[C@@H](CCCN)C(=O)N1CCC[C@H]1C(=O)N[C@H](CC1CCCCC1)C(=O)N[C@@H](Cc1c[nH]c2ccccc12)C(=O)N[C@@H](Cc1ccccc1)C(N)=O (HELM PEPTIDE1{[ac].F.[Orn].P.[O=C([C@@H](CC1CCCCC1)N[*:1])[*:2]].W.F.[am]}$$$$V2.0) | MET
